Target: Peroxisome proliferator-activated receptor alpha (Homo sapiens)
Test: qHTS assay for small molecule agonists of the peroxisome proliferator-activated receptor alpha (PPARalpha) signaling pathway (AID 651778); note: potency is the fitted concentration of half-maximal effect
Conditions: PathHunter PPARalpha complementation, chemiluminescence, 6 h
Text: National Center for Advancing Translational Sciences [NCATS] NIH Chemical Genomics Center [NCGC] U.S. Environmental Protection Agency [EPA] National Institutes of Environmental Health Sciences [NIEHS] National Toxicology Program [NTP] The Peroxisome proliferator-activated receptors (PPARs) are lipid-activated transcription factors of the nuclear receptor superfamily with three distinct subtypes (alpha, garmma and beta/delta). […]
Calls of active or inactive are those of the source. Calls come from the whole dose curve; as a rule, active = well fitted activation curve with a large enough effect; inconclusive = small, poorly fitted or top-dose-only effect; inactive = flat fitted curve, though single readings scatter.
Provide the recorded Potency for the entries that follow.

Could you share which Potency value was measured for CCCCCCC(O)CCCCCCCCCCC(=O)O (stereo not given) ?
31.6 µM (active)

Could you share which Potency value was measured for CO[Si](CCCOCC1CO1)(OC)OC (stereo not given) ?
39.8 µM (active)

Could you share which Potency value was measured for "CC(C)CCCCCCCCCCCCCCC(=O)O" ?
39.8 µM (active)

Could you share which Potency value was measured for CCCCCCC(O)CCCCCCCCCCC(=O)OC (stereo not given) ?
20 µM (active)

Could you share which Potency value was measured for O=C1NC(=O)C(Cc2ccc(OCCN3COc4ccccc4C3=O)cc2)S1 (stereo not given) ?
17.8 µM (active)
